# target_or_test_system: Mushroom tyrosinase (Agaricus bisporus, UniProt O42713+Q00024+C7FF04+C7FF05)
# test_protocol: Inhibition of mushroom tyrosinase using tyrosine as substrate incubated for 20 mins followed by substrate addition and measured every 10 mins for 30 mins
Lab note: cut-off is 4 µM. Strictly less in IC50 is yes (1). Exactly 4 µM or more is no (0).

Examples with answers:
O=Cc1cc(O)c(O)c2oc3ccccc3c(=O)c12 = no (0)
Cc1cc(O)c(O)c2oc3cc(O)ccc3c(=O)c12 = yes (1)
COc1cccc2oc3ccccc3c(=O)c12 = no (0)
COc1cc(C=O)c2c(=O)c3ccccc3oc2c1OC = no (0)
COc1c(O)cc2oc3ccccc3c(=O)c2c1O = yes (1)
O=c1c2ccccc2oc2c(O)c(O)ccc12 [3,4-DIHYDROXYXANTHONE] = no (0)
Cc1cc(O)c(O)c2oc3ccccc3c(=O)c12 = no (0)
O=c1c2ccccc2oc2cc(O)ccc12 = no (0)
COc1cc(C)c2c(=O)c3ccccc3oc2c1OC = yes (1)
O=c1c2ccccc2oc2ccc(O)c(O)c12 = no (0)

For COc1ccc2c(=O)c3ccccc3oc2c1O , is the recorded IC50 below the cut-off of 4 µM?
no (0)

For COc1cc(C(Br)Br)c2c(=O)c3ccccc3oc2c1OC , is the recorded IC50 below the cut-off of 4 µM?
yes (1)

For COc1c(O)ccc2c(=O)c3ccccc3oc12 , is the recorded IC50 below the cut-off of 4 µM?
yes (1)

For O=c1c2cc(O)ccc2oc2cccc(O)c12 , is the recorded IC50 below the cut-off of 4 µM?
no (0)

For O=c1c2ccc(O)cc2oc2cc(O)ccc12 , is the recorded IC50 below the cut-off of 4 µM?
no (0)

For COc1cc2oc3ccccc3c(=O)c2cc1OC , is the recorded IC50 below the cut-off of 4 µM?
no (0)
